# Test system: NanoLuc luciferase (engineered Oplophorus gracilirostris luciferase)
# ASSAY_OVERVIEW: Biochemical NLuc saturation counterscreen for small molecule modulators of PMP22 gene expression - Nano-Glo assay (AID 1508638)
# ASSAY_CONDITIONS: Secreted NLuc enzyme (filtered S16 cell medium), Nano-Glo luminescence; series mostly up to 57.5 µM
This is one part of the list. Results filed as inconclusive are left out. The source made the active and inactive calls. Calls follow the shape of the dose curve; as a rule, active = well fitted inhibition curve with a large enough effect; inconclusive = small, poorly fitted or top-dose-only effect; inactive = flat fitted curve, though single readings scatter.
Hi! Could you answer with just one of these? true (active), false (inactive)

Recorded results for 2 molecules are shown here.
CCOC(=O)c1c(C)[nH]c(CCC(=O)NCCCN2CCN(c3cccc(Cl)c3)CC2)c1C :: false
Cc1ccc(CCNC(=O)C2CCN(c3nnc(-n4cccc4CNc4ccc(C)cc4)s3)CC2)cc1 :: false

How did this test come out for Cc1ccc(OCCSc2nc3ccc(NC(=O)COc4ccc(C)cc4)cc3s2)cc1 ? false

What was the test verdict on CC(C)(C)c1ccc(C(=O)NCC(c2ccco2)S(=O)(=O)c2ccc(F)cc2)cc1 (stereo unspecified) ? false

What call does the record list for CCOc1ccc(NC(=O)c2c(NC(=O)Cc3ccccc3)sc3c2CCC(C)C3)cc1 (stereo unspecified) ? false

Fill in: this test's call for O=C(c1ccc2c(c1)N(Cc1ccc(F)cc1)C(=O)c1ccccc1S2(=O)=O)N1CCN(c2ccccn2)CC1 is ___ true

Could you please tell me the result logged for CCC1=Nc2cc(C(=O)NCCCOC(C)C)ccc2Sc2ccc(C)cc21 in this assay? false

Outcome logged for CCc1ccc(C2CC(=O)c3c([nH]c(C(=O)OCc4ccc(C)cc4)c3C)C2)cc1 (stereo unspecified) in this assay: false

Lab log entry: Cc1ccc(C)n1-c1nnc(N2CCC(C(=O)NCc3ccccc3Cl)CC2)s1 — outcome as called in the assay? false
